biological target: Cyclophilin A (Homo sapiens); construct: made in house; experiment: AlphaLISA inhibition of binding of biotinylated Cyclosporin A to FLAG tagged Cyclophilin A; conditions: AlphaLISA signal; test concentration not given
Sequence (P62937 whole entry, species assumed): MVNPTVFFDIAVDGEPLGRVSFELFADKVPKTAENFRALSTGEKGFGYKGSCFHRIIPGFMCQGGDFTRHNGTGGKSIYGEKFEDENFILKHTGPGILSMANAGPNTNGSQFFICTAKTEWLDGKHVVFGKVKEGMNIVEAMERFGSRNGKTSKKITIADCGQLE
Where a SMILES comes first, the peptide text is derived from it. [ ]: non-standard residue; d: D form. MeBmt = C/C=C/C[C@@H](C)[C@@H](O)[C@H](NC)C(=O)O; NMeI = CC[C@H](C)[C@H](NC)C(=O)O; NMeL = CN[C@@H](CC(C)C)C(=O)O; Tle = CC(C)(C)[C@H](N)C(=O)O; NMeV = CN[C@H](C(=O)O)C(C)C; NMeA = CN[C@@H](C)C(=O)O; Abu = CC[C@H](N)C(=O)O; Sar = CNCC(=O)O
Quantity name: % signal
Respond with a number, then the unit of measure.

Solved cases below.
{"columns": ["Compound", "Quantity name", "Measurement"],
 "data": [
  ["C/C=C/C[C@@H](C)[C@@H](O)[C@H]1C(=O)N[C@@H](CC)C(=O)N(C)CC(=O)N(C)[C@@H]([C@@H](C)CC)C(=O)N[C@@H](CC(C)C)C(=O)N(C)[C@@H](CC(C)C)C(=O)N[C@@H](CC(C)C)C(=O)N[C@H](C)C(=O)N(C)[C@@H](CC(C)C)C(=O)N(C)[C@@H](CC(C)C)C(=O)N(C)[C@@H](C(C)C)C(=O)N1C [Compound C57] (cyclo([MeBmt][Abu][Sar][NMeI]L[NMeL]L[dA][NMeL][NMeL][NMeV]))", "% signal", "0.15%"],
  ["C/C=C/C[C@@H](C)[C@@H](O)[C@H]1C(=O)N[C@@H](CC)C(=O)N(C)CC(=O)N(C)[C@@H](C(C)C)C(=O)N[C@@H](C(C)(C)C)C(=O)N(C)[C@@H](C)C(=O)N[C@@H](CC(C)C)C(=O)N[C@H](C)C(=O)N(C)[C@@H](CC(C)C)C(=O)N(C)[C@@H](CC(C)C)C(=O)N(C)[C@@H](C(C)C)C(=O)N1C [Compound C77] (cyclo([MeBmt][Abu][Sar][NMeV][Tle][NMeA]L[dA][NMeL][NMeL][NMeV]))", "% signal", "0.44%"]
]}

Next, consider the following compound.
Reported % signal, compound C/C=C/C[C@@H](C)[C@@H](O)[C@H]1C(=O)N[C@@H](CC)C(=O)N(C)CC(=O)N(C)[C@@H]([C@@H](C)O)C(=O)N[C@@H](C(C)C)C(=O)N(C)[C@@H](CC(C)C)C(=O)N[C@@H](C)C(=O)N[C@H](C)C(=O)N(C)[C@@H](CC(C)C)C(=O)N(C)[C@@H](CC(C)C)C(=O)N(C)[C@@H](C(C)C)C(=O)N1C : ____
1.57%
